Target: CDK19/CycC (Homo sapiens, UniProt Q9BWU1)
Construct: ICE Bioscience Inc. (assay service)
Sequence (Q9BWU1 whole entry, species assumed): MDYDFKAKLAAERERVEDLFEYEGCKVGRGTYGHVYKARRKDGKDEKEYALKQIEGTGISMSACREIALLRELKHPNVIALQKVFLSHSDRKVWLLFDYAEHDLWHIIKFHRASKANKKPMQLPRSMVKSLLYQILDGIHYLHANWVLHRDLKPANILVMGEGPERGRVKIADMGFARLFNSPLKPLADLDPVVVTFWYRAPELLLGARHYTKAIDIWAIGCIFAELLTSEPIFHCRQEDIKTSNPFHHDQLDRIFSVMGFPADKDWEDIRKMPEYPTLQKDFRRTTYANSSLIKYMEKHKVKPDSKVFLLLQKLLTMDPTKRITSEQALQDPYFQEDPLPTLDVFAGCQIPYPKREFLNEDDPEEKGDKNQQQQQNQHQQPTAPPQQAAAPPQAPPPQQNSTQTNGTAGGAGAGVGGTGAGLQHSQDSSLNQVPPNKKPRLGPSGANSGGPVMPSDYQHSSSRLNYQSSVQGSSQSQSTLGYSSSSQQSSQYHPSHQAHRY
Sequence (P24863 whole entry partner, species assumed): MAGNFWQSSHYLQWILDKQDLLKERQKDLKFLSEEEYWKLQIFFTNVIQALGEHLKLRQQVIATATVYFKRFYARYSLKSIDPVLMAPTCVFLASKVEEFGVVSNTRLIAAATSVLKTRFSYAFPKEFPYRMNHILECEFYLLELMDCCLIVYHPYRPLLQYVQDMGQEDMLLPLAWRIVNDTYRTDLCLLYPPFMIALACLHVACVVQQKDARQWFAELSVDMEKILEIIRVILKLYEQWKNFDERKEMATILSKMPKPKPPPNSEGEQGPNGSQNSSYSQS
Assay: CDK family panel, ADP-Glo
Assay type: biochemical
readout-name: IC50

Req: Dear colleague, I am looking for the recorded IC50 of the following compound: C=CC(=O)Nc1cc(N(C(=O)NCc2ccccc2)[C@H]2CC[C@H](Nc3ccc(C#N)cn3)CC2)ccc1N1CCC(N(C)C)CC1 [YJZ5118]
Resp: > 10000 nM

====

Test: Pharmacokinetics study in mice
Assay type: in vivo, ICR mice
Conditions: both sexes, ICR, mouse, plasma, ip, 2.5 mg/kg, i.p. 2.5 mg/kg, read-out: F
readout-name: bioavailability (%)
Answers are plain numbers, in %.

Req: Dear colleague, I am looking for the recorded bioavailability of the following compound: `C=CC(=O)Nc1cc(N(C(=O)NCc2ccccc2)[C@H]2CC[C@H](Nc3ccc(C#N)cn3)CC2)ccc1N1CCC(N(C)C)CC1`
Resp: 113
